TARGET OR TEST SYSTEM: T1, Her018P, Her2 ECD with a deletion in the CR2 (Domain IV) region expressed with a mIgG2a Fc tail (human; murine, UniProt P04626 23-599)
T1 construct: Shares the name HER018 with the trastuzumab SMIP; also called 1.8 (Dimer); dimeric HER018; not shown: murine IgG2a Fc tail (C-terminal dimerising carrier) and any junction residues
ASSAY NOTES: ELISA, soluble scFv on Her018
METRIC NAME: binding result

# BINDER, METRIC NAME, MEASURED VALUE
measured = [
    ("S1R3A1_BMV_1G4 (scFv, V domains shown, scFv, soluble from bacterial periplasm in the screen; also called Her2_S1R3A1_BMV_1G4) VH: QVQLVESGAEVKKPGASVKVSCKASGYTFTSYDINWVRQAPGQRLEWMGWINAGNGNTKYSQKFQGRVTITRDTSASTAYMELRSLRSDDTAVYYCARGRSYGHPYYFDYWGQGTLVTVSS VL: QSVLTQPASVSGSPGQSITISCTGTSSDVGGYNYVSWYQQHPGKAPKLMIYEGSKRPSGVSNRFSGSKSGNTASLTISGLQAEDEADYYCSSYTTRSTRVFGGGTKLTVL", "binding result", "no binding"),
    ("S1R3B2_BMV_1E1 (scFv, V domains shown, scFv, on phage in the screen; also called Her2_S1R3B2_BMV_1E1) VH: EVQLVETGGGVVQPGGSLSLSCAASGFTFSSYGMQWVRQAPGKGLEWVAFIRYDGSSEYYADSVKGRFTISRDNSKNTLYLQMNSLRAEDTAVYYCGRTLESSLWGKGTLVTVSS VL: QSVLTQPPSVSAAPGQKVTISCSGSTSNIGNNYVSWYQQHPGKAPKLMIYDVSKRPSGVPDRFSGSKSGNSASLDISGLQSEDEADYYCAAWDDSLSEFLFGTRTKLTVL", "binding result", "no binding"),
    ("S1R3C1_CS_1D3 (scFv, V domains shown, scFv, on phage in the screen; also called Her2_S1R3C1_CS_1D3) VH: QVQLQESGPGLVKPSQTLSLTCGISGDSVSSNSAAWNWIRQSPTRGLEWLGRTYYRSSWYHNYAPSMNSRLTIIADTSKNQFSLQLNSVTPEDTAVYYCASGWAFDVWGRGTLVTVSS VL: QSVLTQPPSASGSPGQSVTISCTGTSSDVGAYDFVSWYQQHPGKAPKLMIYEVNKRPSGVPDRFSGSKSGNTASLTVSGLQAEDEADYYCSSYAGSKNLLFGGGTKLTVL", "binding result", "no binding"),
]
